Molecular target: human ether-à-go-go-related gene (hERG) potassium channel (human, UniProt Q12809);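 note: peak tail current of the secondary pulse compared with the same well before compound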
Sequence (Q12809 whole entry, looked up): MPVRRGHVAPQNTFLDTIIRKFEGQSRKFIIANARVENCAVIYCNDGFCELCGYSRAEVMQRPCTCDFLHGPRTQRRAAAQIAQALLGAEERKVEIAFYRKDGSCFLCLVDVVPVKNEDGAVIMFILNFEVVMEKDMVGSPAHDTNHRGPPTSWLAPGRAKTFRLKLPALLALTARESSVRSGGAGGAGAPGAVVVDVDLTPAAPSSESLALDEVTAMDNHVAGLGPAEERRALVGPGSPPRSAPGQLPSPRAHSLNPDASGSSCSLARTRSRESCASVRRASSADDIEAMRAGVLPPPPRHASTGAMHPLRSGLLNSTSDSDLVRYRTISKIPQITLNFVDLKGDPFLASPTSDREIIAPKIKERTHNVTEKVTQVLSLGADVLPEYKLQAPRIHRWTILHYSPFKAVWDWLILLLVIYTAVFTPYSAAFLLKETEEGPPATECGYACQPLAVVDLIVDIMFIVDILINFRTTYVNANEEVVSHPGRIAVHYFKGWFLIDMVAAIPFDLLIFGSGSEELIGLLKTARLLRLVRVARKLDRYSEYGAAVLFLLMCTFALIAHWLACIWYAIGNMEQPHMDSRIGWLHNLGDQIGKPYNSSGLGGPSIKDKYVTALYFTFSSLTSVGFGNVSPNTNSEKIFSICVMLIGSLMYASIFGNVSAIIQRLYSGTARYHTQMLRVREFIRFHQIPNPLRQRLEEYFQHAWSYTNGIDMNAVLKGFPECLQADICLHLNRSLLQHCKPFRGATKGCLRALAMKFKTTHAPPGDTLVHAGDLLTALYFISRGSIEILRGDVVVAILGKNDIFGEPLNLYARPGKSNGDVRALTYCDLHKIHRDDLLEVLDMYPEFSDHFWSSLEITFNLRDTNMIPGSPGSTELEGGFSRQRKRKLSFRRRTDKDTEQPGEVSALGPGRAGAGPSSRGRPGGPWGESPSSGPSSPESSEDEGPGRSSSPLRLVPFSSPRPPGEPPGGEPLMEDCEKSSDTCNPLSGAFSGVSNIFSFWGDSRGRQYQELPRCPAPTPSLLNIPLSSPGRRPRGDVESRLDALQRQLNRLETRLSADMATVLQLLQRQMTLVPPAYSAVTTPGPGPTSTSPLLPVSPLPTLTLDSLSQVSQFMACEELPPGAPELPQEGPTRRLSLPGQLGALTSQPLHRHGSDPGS
Assay: primary screen, population patch clamp on CHO cells stably expressing hERG; higher = less effect of the substance
Screen size: about 310,000 compounds; about 14,000 (4.5%) showed an effect of 50% or more. The effect is printed as a negative number. For the sample, strong results were picked, then their nearest neighbours and some compounds at random.
Quantity measured: hERG current change (%, negative = inhibition) at 10uM (%)
// return numeric value only (unit: %, not printed)

Req: Determine from records and report hERG current change (%, negative = inhibition) at 10uM for `CC(C)OC(=O)c1c2c(n3ccccc13)C(=O)c1ccccc1C2=O`
Resp: 5.73

Req: Please give measured hERG current change (%, negative = inhibition) at 10uM of the following entry: `CCOC(=O)c1[nH]c2ccc(OC)cc2c1N=CN(C)C`
Resp: -7.13

Req: Identify hERG current change (%, negative = inhibition) at 10uM associated with the compound `Cc1ccc2[nH]c(O)c(N=NC(N)=S)c2c1`
Resp: 19.3

Req: Give hERG current change (%, negative = inhibition) at 10uM for `CCc1nc2c(c(=O)c3ccccc3n2C)c(=O)n1C1CCCCCC1`
Resp: -1.73

Req: Return reported hERG current change (%, negative = inhibition) at 10uM. Input compound: `Cn1c2ccccc2c(=O)c2c(=O)n(C3CCCCC3)c(-c3cccs3)nc21`
Resp: -66.1

Req: Please report the measured hERG current change (%, negative = inhibition) at 10uM for `Cc1ccccc1C(=O)N1CCN(CCNC(=O)C(=O)Nc2ccc(Br)cc2)CC1`
Resp: -68.8

Req: Annotate the compound `CCOC(=O)c1[nH]c2ccccc2c1N=CN(C)C` with its measured hERG current change (%, negative = inhibition) at 10uM.
Resp: -28.9

Req: Hello, please tell me recorded hERG current change (%, negative = inhibition) at 10uM for this one: `O=C(COc1ccc(Cl)cc1)NCc1ccccc1`
Resp: -10.4

Req: Give me measured hERG current change (%, negative = inhibition) at 10uM, please, for this compound: `Cc1ccc(CSCc2ccc(C(=O)O)o2)cc1`
Resp: 21.8

Req: Identify measured hERG current change (%, negative = inhibition) at 10uM corresponding to COc1ccccc1CCNC(=O)C1CCC(=O)N(C2CCCCCC2)C1 (centres unmarked)
Resp: -7.62

Req: Supply reported hERG current change (%, negative = inhibition) at 10uM belonging to this compound: `COc1cc(-c2nc3c[n+](CC(=O)c4ccccc4)ccc3n2C)cc(OC)c1OC.[Br-]`
Resp: 0.461

Req: Give the reported hERG current change (%, negative = inhibition) at 10uM for this compound. `CCOC(=O)c1[nH]c2ccccc2c1NC(=O)CN(C)C`
Resp: 7.08

Req: Give the value of hERG current change (%, negative = inhibition) at 10uM reported for the following: CC(C)CCOc1ccc(NC(=O)C2OC3OC(C)(C)OC3C3OC(C)(C)OC23)cc1 (centres unmarked)
Resp: 20.5

Req: Give the measured hERG current change (%, negative = inhibition) at 10uM for `COc1cc(C)c(CN2CCC(Cc3ccccc3)CC2)cc1C`
Resp: -45.3

###

Target: human ether-à-go-go-related gene (hERG) potassium channel (human, UniProt Q12809);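 note: peak tail current of the secondary pulse compared with the same well before compound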
Assay: primary screen, population patch clamp on CHO cells stably expressing hERG; higher = less effect of the substance
Procedure: Briefly, Chinese hamster ovary (CHO) cells stably expressing the hERG channel were dislodged from tissue culture flasks and dispensed into PPC plates. […] During the recording, background leak currents were estimated by a 100 ms step to -80 mV from an initial holding potential of -70 mV and subtracted from the subsequent current measurement. The campaign was conducted in two phases using slight differences in recording protocol. […]
Screen size: about 310,000 compounds; about 14,000 (4.5%) showed an effect of 50% or more. The effect is printed as a negative number. Shown is part of a subset that was picked to be rich in strong results.
What hERG current change (%, negative = inhibition) at 10uM was measured for each of the following?
Expressed in %, but write only the number.

Req: Output hERG current change (%, negative = inhibition) at 10uM of `O=C(CCc1ccccc1)Nc1cc2c(cc1Cl)OCCO2`
Resp: -7.19

Req: Identify measured hERG current change (%, negative = inhibition) at 10uM corresponding to `CCOC(=O)c1[nH]c2ccc(OC)cc2c1NC(=O)CN1CCc2ccccc2C1`
Resp: -12.4

Req: Annotate the compound `COc1cc2c(c(OC)c1OC)C(=O)CC2` with its measured hERG current change (%, negative = inhibition) at 10uM.
Resp: 15.6

Req: // Input: `Cn1c(SCC(=O)O)nc2sc3c(c2c1=O)CCC3` . Output its hERG current change (%, negative = inhibition) at 10uM only.
Resp: 30.3

Req: Answer with reported hERG current change (%, negative = inhibition) at 10uM of `CC(=O)Nc1ccc(NC(=O)C2CCN(c3c(Cc4ccccc4)c(C)nc4ncnn34)CC2)cc1`
Resp: 2.74
